- targetOrSystem: T1, Human CD137 ECD (human)
- T1 construct: entry includes C-terminal His-tag and biotin acceptor peptide; also called human CD137 extracellular domain; 4-1BB
- T1 sequence (chain, as listed by the source limits assumed): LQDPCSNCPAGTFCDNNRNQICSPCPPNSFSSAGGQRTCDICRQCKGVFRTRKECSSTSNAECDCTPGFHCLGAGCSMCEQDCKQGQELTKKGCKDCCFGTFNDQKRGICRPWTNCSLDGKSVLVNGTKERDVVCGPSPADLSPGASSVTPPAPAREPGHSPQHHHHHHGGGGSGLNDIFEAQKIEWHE
- measurementDescription: Biacore SPR, vs parent H183/L072
# maps each entry to its fold change of affinity
State the answer as a number, implicitly in fold.

These solved cases illustrate the format of a correct answer.
H183/L072 VL T92Q (antibody, name in Kabat numbering, V domains shown, Dual-Ig) VH: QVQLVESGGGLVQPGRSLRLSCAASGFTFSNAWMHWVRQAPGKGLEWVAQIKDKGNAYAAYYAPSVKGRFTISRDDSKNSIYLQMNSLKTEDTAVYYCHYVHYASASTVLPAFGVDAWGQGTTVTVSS VL: DIVMTQSPLSLPVTPGEPASISCQASQELVHMNRNTYLHWYQQKPGQAPRLLIYKVSNRFPGVPDRFSGSGSGTDFTLKISRVEAEDVGVYYCAQGQSVPFTFGQGTKLEIK ... 0
H183/L072 VL Q27F (antibody, name in Kabat numbering, V domains shown, Dual-Ig) VH: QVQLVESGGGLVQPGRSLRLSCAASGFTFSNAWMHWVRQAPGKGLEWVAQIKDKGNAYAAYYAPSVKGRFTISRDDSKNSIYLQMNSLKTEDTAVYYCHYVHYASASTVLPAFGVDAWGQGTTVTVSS VL: DIVMTQSPLSLPVTPGEPASISCQASFELVHMNRNTYLHWYQQKPGQAPRLLIYKVSNRFPGVPDRFSGSGSGTDFTLKISRVEAEDVGVYYCAQGTSVPFTFGQGTKLEIK ... 0.6

As a next step, examine the binder that follows.
Param item = H183/L072 VL A25L (antibody, name in Kabat numbering, V domains shown, Dual-Ig) VH: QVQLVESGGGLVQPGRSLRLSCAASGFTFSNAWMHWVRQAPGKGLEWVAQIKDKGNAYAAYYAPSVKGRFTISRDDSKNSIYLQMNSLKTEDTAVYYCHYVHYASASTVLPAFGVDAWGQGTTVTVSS VL: DIVMTQSPLSLPVTPGEPASISCQLSQELVHMNRNTYLHWYQQKPGQAPRLLIYKVSNRFPGVPDRFSGSGSGTDFTLKISRVEAEDVGVYYCAQGTSVPFTFGQGTKLEIK ; retrieve measured fold change of affinity.
0.1
